Data origin: patent US11584714B2

- measured on: mMASP-2 (Mus musculus (Mouse))
- Sequence (Q91WP0 20-685): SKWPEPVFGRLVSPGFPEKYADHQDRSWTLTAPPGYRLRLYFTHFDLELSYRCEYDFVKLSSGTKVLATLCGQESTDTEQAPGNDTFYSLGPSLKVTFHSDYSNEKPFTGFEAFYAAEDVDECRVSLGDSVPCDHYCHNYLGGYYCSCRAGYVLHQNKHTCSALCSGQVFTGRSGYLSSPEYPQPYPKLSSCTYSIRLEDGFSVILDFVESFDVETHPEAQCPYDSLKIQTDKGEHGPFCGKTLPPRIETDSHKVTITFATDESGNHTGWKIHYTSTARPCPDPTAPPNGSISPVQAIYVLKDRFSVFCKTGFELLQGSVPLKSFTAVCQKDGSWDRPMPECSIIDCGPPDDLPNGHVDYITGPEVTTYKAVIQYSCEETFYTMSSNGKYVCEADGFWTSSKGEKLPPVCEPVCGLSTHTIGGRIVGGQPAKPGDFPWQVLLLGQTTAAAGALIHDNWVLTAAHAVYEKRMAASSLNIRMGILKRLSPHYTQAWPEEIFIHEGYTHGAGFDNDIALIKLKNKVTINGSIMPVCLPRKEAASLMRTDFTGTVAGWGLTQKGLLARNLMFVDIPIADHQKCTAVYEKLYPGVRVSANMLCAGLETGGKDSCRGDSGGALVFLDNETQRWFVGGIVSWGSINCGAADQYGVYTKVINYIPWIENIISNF
- protocol notes: Enzymatic inhibition of mMASP-2
- Format: biochemical
- experimental setup: read-out: mMASP-2 Ki
Structures can show the parent of a compound that is named as a salt.
measured metric: Ki

Record C[C@H](NC(=O)[C@H]1C[C@H](c2ccccc2)CN1)C(=O)NCc1cnc2[nH]ccc2c1 [compound 1311, Dihydrochloride] , field Ki: 2500 to 10000 nM

Record Cc1nc(N)ccc1CNC(=O)[C@H](C)NC(=O)[C@H]1C[C@H](Cc2ccc(-c3ccc(F)cc3CN)cc2)CN1 [compound 1403] , field Ki: 500 to 2500 nM

Record C[C@H](NC(=O)[C@H]1C[C@H](Cc2ccccc2)CN1)C(=O)NCc1cnc2[nH]cc(Cl)c2c1 [compound 1334, Di-hydrochloride] , field Ki: < 500 nM

Record C[C@H](NC(=O)[C@H](N)CCc1ccccc1)C(=O)NCCOc1ccc(N)nc1 [compound 1215] , field Ki: < 25000 nM

====

- measured on: mMASP-2 (Mus musculus (Mouse))
- protocol notes: Enzymatic inhibition of mMASP-2
- Type: biochemical
- experimental setup: read-out: mMASP-2 Ki
pKi: −log10 of the molar value. Where a name gives a salt, the structure may show the parent alone.
measured metric: pKi

Value (pKi, mMASP-2 (Mus musculus (Mouse))) for record "C[C@H](NC(=O)c1nc(-c2ccccc2)cs1)C(=O)NCc1ccc(C(=N)N)cc1" = > 6.30

Value (pKi, mMASP-2 (Mus musculus (Mouse))) for record C[C@H](NC(=O)[C@H]1C[C@H](Cc2ccccc2)CN1)C(=O)NCc1ccc(C(=N)N)cc1 [compound 1306, Dihydrochloride] = > 6.30

Value (pKi, mMASP-2 (Mus musculus (Mouse))) for record C[C@H](NC(=O)[C@H]1C[C@H](c2ccccc2)CN1)C(=O)NCc1ccn2ccnc2c1 [compound 1366, Dihydrochloride] = 5.00 to 5.60

Value (pKi, mMASP-2 (Mus musculus (Mouse))) for record C[C@H](NC(=O)[C@H]1C[C@H](Cc2ccc(F)c(Cl)c2)CN1)C(=O)NCc1cnc2c(c1)c(Cl)cn2C [compound 1474, Trifluoroacetate salt] = > 6.30

====

- measured on: MASP-2 (CCP1-CCP2-SP) (Homo sapiens (Human), UniProt O00187)
- Sequence (O00187 445-686): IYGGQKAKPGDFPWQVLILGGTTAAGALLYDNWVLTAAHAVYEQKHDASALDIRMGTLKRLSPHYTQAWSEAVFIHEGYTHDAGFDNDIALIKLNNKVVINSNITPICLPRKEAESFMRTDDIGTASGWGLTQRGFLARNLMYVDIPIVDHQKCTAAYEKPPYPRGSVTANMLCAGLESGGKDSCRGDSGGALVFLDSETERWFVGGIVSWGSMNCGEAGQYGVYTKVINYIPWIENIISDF
- protocol notes: biochemical
- Format: biochemical
- experimental setup: selectivity for MASP-2 inhibition versus thrombin
Where a name gives a salt, the structure may show the parent alone.
measured metric: MASP-2 vs. thrombin selectivity

{"molecule": "Cc1nc(N)ccc1CNC(=O)[C@H](C)NC(=O)[C@H]1C[C@H](Cc2ccc3nsnc3c2)CN1 [compound 1449, Di-trifluoroacetate salt]", "measured on": "MASP-2 (CCP1-CCP2-SP) (Homo sapiens (Human), UniProt O00187)", "MASP-2 vs. thrombin selectivity": "**** (≥100-fold)"}
{"molecule": "Cc1nc(N)ccc1CNC(=O)[C@H](C)NC(=O)[C@H]1C[C@H](Cc2ccc(C#N)c3ccccc23)CN1 [compound 1431, Dihydrochloride]", "measured on": "MASP-2 (CCP1-CCP2-SP) (Homo sapiens (Human), UniProt O00187)", "MASP-2 vs. thrombin selectivity": "**** (≥100-fold)"}
{"molecule": "Cc1nc(N)ccc1CNC(=O)[C@H](C)NC(=O)[C@H]1C[C@@H](Cc2ccccc2)CCN1 [compound 1353, Dihydrochloride]", "measured on": "MASP-2 (CCP1-CCP2-SP) (Homo sapiens (Human), UniProt O00187)", "MASP-2 vs. thrombin selectivity": "*** (≥25 to <100-fold)"}
{"molecule": "Cc1nc(N)ccc1CNC(=O)[C@H](C)NC(=O)[C@H]1C[C@H](Cc2ccc(Br)c(Cl)c2)CN1 [compound 1466, Di-trifluoroacetate salt]", "measured on": "MASP-2 (CCP1-CCP2-SP) (Homo sapiens (Human), UniProt O00187)", "MASP-2 vs. thrombin selectivity": "**** (≥100-fold)"}
{"molecule": "Cc1nc(N)ccc1CNC(=O)[C@H](C)NC(=O)[C@H]1C[C@H](Oc2ccc(Br)cc2)CN1 [compound 1445, Dihydrochloride]", "measured on": "MASP-2 (CCP1-CCP2-SP) (Homo sapiens (Human), UniProt O00187)", "MASP-2 vs. thrombin selectivity": "**** (≥100-fold)"}
{"molecule": "C[C@H](NC(=O)[C@H]1C[C@@H](c2cccc(C#N)c2)CN1)C(=O)NCc1ccc(C(=N)N)cc1 [compound 1278]", "measured on": "MASP-2 (CCP1-CCP2-SP) (Homo sapiens (Human), UniProt O00187)", "MASP-2 vs. thrombin selectivity": "*** (≥25 to <100-fold)"}
{"molecule": "CCc1cccc([C@H]2CN[C@@H](C(=O)N[C@@H](C)C(=O)NCc3ccc(N)nc3C)C2)c1 [compound 1303, Dihydrochloride]", "measured on": "MASP-2 (CCP1-CCP2-SP) (Homo sapiens (Human), UniProt O00187)", "MASP-2 vs. thrombin selectivity": "*** (≥25 to <100-fold)"}
{"molecule": "C[C@H](NC(=O)[C@H]1C[C@H](c2ccccc2)CN1)C(=O)NCc1cc(Cl)ccc1NS(C)(=O)=O [compound 1274]", "measured on": "MASP-2 (CCP1-CCP2-SP) (Homo sapiens (Human), UniProt O00187)", "MASP-2 vs. thrombin selectivity": "** (≥5.0 to <25-fold)"}
{"molecule": "Cc1cnc(NCCc2ccccc2)c(=O)n1CC(=O)NCc1ccc2nc(N)[nH]c2c1 [compound 1492]", "measured on": "MASP-2 (CCP1-CCP2-SP) (Homo sapiens (Human), UniProt O00187)", "MASP-2 vs. thrombin selectivity": "** (≥5.0 to <25-fold)"}
{"molecule": "Cc1nc(N)ccc1CNC(=O)[C@H](C)N(C)C(=O)[C@H]1C[C@H](Cc2ccc(Br)cc2)CN1 [compound 1497, Di-trifluoroacetate salt]", "measured on": "MASP-2 (CCP1-CCP2-SP) (Homo sapiens (Human), UniProt O00187)", "MASP-2 vs. thrombin selectivity": "** (≥5.0 to <25-fold)"}

Record C[C@H](NC(=O)[C@H]1C[C@H](c2ccccc2)CN1)C(=O)NCc1cnc2[nH]nc(Cl)c2c1 [compound 1384, Dihydrochloride] , field MASP-2 vs. thrombin selectivity: * (≥1.0 to <5.0-fold)

Record C[C@H](NC(=O)[C@H](N)CCc1ccccc1)C(=O)NCc1cc(C#N)ccc1O [compound 1314, Trifluoroacetate salt] , field MASP-2 vs. thrombin selectivity: * (≥1.0 to <5.0-fold)

Record Cc1nc(N)ccc1CNC(=O)[C@H](C)NC(=O)[C@H]1C[C@H](Cc2ccc3ccccc3c2)CN1 [compound 1338, Dihydrochloride] , field MASP-2 vs. thrombin selectivity: **** (≥100-fold)
